Tested on: MS2 coat protein
experimental.details: apparent KD of MS2 coat protein; designed switch direction (-1 OFF switch, 1 ON switch): 1; higher = weaker reporter binding
reported.conditions: input ligand: microRNA oligo, concentration not stated
Kindly return 1 (yes) if reported apparent KD of MS2 coat protein is no lower than 0.04 µM; return 0 (no) if it is lower.

UGGAGAAGUCAAGGAUAUGCUACCGUUUCGGUAGCAGAAGGUGAUCACAUGAGGAUCACCCAUGUAUGCAUGCGUGAGCGUGCU [JL SSNG1 3.55] (Eterna round: R96, puzzle: Same State NG 1) : 0 (no)
GUUACAUGAGGAUCACCCAUGUAUGUGUGGGAGUAAGUGUCUUAGGAUAUCUGUUAUUCAAUUUAAGAGAAGGAAGAUUGUUGU [JMF's solution 38] (Eterna round: R96, puzzle: Same State NG 3) : 1 (yes)
GUGCUCAUGUAAGGAUAUGCAGCCGUUUCGGCUGCAGAAGGUACUAUAAUACAUGAGGAUCACCCAUGUCUCUAUAAUUUGGUG [salish99_SSNG1_r04_903] (Eterna round: R96, puzzle: Same State NG 1) : 1 (yes)
CCGUUCAAUAAACAUGAGGAUCACCCAUGUUAUAAUAUGGGUGAGGAUAUGCAUCUGAAACAGGUGCAGAAGGCAUAAGAGCGG [JL SSNG3 3.92] (Eterna round: R96, puzzle: Same State NG 3) : 0 (no)
UGUUAUUAGACAGGAUAUUGAAUGUUAAGUAUUAACAUGAGGAUCACCCAUGUAUUUGAUUGGUACAAGAAGGGUCAUGUUUGU [JR_SSNG2_Sub015] (Eterna round: R96, puzzle: Same State NG 2) : 1 (yes)
